Biological target: Factor X (FX), P00742
Sequence (P00742 whole entry, looked up): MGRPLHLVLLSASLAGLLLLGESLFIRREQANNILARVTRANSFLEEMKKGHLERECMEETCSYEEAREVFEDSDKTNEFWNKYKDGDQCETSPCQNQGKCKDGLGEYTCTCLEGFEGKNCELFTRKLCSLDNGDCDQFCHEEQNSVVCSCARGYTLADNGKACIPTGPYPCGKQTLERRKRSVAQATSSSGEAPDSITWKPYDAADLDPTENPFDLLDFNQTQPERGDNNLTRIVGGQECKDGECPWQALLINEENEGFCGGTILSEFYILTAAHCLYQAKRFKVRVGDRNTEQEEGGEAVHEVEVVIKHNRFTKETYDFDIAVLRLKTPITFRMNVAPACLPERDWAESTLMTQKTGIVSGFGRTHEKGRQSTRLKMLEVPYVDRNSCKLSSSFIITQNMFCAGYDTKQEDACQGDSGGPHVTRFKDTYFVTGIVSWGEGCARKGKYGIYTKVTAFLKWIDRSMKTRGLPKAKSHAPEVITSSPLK
MEASUREMENT KIND: kcat (s⁻¹)
Express the result in s⁻¹ but write the number alone.

Known kcat results, listed for orientation:
FIXa-K293A/R338A/R403A (protein) chain 1: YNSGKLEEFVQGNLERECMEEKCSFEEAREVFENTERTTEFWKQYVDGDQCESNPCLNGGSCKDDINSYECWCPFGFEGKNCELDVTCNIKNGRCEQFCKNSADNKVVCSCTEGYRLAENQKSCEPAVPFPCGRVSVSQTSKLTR chain 2: VVGGEDAKPGQFPWQVVLNGKVDAFCGGSIVNEKWIVTAAHCVETGVKITVVAGEHNIEETEHTEQKRNVIRIIPHHNYNAAINKYNHDIALLELDEPLVLNSYVTPICIADAEYTNIFLKFGSGYVSGWGRVFHKGRSALVLQYLRVPLVDRATCLASTKFTIYNNMFCAGFHEGGRDSCQGDSGGPHVTEVEGTSFLTGIISWGEECAMKGKYGIYTKVSAYVNWIKEKTKLT: 1.6
FIXa-D203N/F205T/R318Y/E410N (protein) chain 1: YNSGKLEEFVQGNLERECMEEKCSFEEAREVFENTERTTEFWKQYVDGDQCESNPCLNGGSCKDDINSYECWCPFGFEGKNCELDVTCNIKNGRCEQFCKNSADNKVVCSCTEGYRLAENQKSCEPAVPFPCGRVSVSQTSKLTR chain 2: VVGGEDAKPGQFPWQVVLNGKVNATCGGSIVNEKWIVTAAHCVETGVKITVVAGEHNIEETEHTEQKRNVIRIIPHHNYNAAINKYNHDIALLELDEPLVLNSYVTPICIADKEYTNIFLKFGSGYVSGWGRVFHKGYSALVLQYLRVPLVDRATCLRSTKFTIYNNMFCAGFHEGGRDSCQGDSGGPHVTEVEGTSFLTGIISWGEECAMKGKYGIYTKVSRYVNWIKNKTKLT: 1.6
FIXa-D104N/K106S/R318Y/R338E/E410N (protein) chain 1: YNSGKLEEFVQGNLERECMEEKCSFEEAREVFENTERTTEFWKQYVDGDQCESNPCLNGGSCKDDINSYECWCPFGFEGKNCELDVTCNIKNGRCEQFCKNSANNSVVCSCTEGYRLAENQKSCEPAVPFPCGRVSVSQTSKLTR chain 2: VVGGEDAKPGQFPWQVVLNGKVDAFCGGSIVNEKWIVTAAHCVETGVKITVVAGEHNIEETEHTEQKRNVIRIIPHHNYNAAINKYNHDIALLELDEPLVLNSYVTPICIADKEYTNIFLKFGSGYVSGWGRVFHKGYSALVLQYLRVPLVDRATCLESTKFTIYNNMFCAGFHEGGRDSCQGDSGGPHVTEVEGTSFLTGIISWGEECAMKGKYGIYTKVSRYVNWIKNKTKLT: 4.8
FIXa-D104N/K106S/Y155F/R318Y/R338E/R403E/E410N (protein) chain 1: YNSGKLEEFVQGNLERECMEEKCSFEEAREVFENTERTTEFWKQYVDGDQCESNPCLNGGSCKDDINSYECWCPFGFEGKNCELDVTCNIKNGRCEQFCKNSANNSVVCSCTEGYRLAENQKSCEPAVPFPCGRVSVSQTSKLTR chain 2: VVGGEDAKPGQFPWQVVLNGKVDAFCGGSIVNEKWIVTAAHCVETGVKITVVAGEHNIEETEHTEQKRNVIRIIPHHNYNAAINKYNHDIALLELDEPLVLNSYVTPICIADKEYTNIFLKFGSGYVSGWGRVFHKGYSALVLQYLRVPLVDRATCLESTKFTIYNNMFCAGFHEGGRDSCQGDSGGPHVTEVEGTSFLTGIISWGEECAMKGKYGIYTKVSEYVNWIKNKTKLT: 8.5

Value lookup for kcat; key = FIXa-R318Y/R338E/R403E/E410S (protein) chain 1: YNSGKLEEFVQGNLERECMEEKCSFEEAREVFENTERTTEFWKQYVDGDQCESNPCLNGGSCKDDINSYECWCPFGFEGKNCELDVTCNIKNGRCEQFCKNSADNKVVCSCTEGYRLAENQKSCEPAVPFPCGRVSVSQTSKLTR chain 2: VVGGEDAKPGQFPWQVVLNGKVDAFCGGSIVNEKWIVTAAHCVETGVKITVVAGEHNIEETEHTEQKRNVIRIIPHHNYNAAINKYNHDIALLELDEPLVLNSYVTPICIADKEYTNIFLKFGSGYVSGWGRVFHKGYSALVLQYLRVPLVDRATCLESTKFTIYNNMFCAGFHEGGRDSCQGDSGGPHVTEVEGTSFLTGIISWGEECAMKGKYGIYTKVSEYVNWIKSKTKLT
5.8

Value lookup for kcat; key = FIXa-D104N/K106S/K247N/N249S/R318Y/R338E/R403E/E410N (protein) chain 1: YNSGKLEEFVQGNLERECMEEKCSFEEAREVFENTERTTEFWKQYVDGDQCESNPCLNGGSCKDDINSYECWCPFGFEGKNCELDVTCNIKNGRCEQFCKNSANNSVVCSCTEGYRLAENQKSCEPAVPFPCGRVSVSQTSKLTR chain 2: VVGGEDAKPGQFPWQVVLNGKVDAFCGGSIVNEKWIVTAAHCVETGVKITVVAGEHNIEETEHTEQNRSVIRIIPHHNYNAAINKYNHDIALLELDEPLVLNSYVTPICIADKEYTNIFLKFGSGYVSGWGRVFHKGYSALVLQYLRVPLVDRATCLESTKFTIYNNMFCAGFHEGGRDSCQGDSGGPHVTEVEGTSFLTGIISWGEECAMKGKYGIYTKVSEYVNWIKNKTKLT
5.2

Value lookup for kcat; key = FIXa-A103N/N105S/R318Y/R338E/R403E/E410N (protein) chain 1: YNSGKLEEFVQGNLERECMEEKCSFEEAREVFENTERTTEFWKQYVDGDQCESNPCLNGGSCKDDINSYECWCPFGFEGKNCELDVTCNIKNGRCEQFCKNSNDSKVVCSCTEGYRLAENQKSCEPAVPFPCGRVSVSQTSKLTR chain 2: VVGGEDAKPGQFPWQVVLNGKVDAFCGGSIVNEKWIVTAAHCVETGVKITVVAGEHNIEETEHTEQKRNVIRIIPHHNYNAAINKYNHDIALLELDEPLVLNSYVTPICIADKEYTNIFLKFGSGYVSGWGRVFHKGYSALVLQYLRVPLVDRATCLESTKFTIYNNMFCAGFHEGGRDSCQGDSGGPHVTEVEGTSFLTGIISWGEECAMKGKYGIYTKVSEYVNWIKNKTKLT
5.4

Value lookup for kcat; key = FIXa-Y155F/K247N/N249S/R318Y/R338E/R403E/E410N (protein) chain 1: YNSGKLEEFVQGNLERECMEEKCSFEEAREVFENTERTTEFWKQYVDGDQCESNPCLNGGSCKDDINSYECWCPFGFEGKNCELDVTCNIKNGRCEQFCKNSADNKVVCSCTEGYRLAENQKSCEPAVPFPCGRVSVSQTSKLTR chain 2: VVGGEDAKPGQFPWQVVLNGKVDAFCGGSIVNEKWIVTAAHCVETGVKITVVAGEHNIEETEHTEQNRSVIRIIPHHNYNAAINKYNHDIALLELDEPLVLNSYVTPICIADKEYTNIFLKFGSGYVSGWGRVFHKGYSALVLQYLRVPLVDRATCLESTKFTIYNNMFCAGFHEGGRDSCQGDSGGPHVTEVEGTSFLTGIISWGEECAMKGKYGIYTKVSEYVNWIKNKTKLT
6.5

Source: patent US20210238260
